System: RXRa homodimer (NR concentration 180 nM)
Assay: PBM binding z-score (relative to random genomic background probes); higher = stronger binding; sequences stand for … in GC…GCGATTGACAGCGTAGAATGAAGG
PBM binding z-score for assorted sequences
Answer as a number with no unit attached.

Take a look at these entries with their results.
seq_text=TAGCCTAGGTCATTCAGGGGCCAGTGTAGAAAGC study_system="RXRa homodimer (NR concentration 180 nM)" property_measured="PBM binding z-score" measured_value=3.15
seq_text=TCTTGTAGATCAACAGGAGGGTAAGAAAGATCGA study_system="RXRa homodimer (NR concentration 180 nM)" property_measured="PBM binding z-score" measured_value=0.0944
seq_text=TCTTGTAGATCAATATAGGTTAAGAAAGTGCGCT study_system="RXRa homodimer (NR concentration 180 nM)" property_measured="PBM binding z-score" measured_value=0.962

Just so you know, measured PBM binding z-score for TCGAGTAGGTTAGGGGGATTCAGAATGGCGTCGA came out at 0.485

Just so you know, measured PBM binding z-score for AGTCAAAGTTCAGCTAGGTAACGTAAGATATGCT came out at 2.96

Just so you know, measured PBM binding z-score for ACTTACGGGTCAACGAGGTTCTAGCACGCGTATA came out at 5.1

Just so you know, measured PBM binding z-score for TCTCGTTGGTCACGGAGGTCACACACGACGGGTA came out at 4.39

Just so you know, measured PBM binding z-score for GCTATTAGTTGAACGGGCAACCGAATGATTCTCG came out at -0.15
